- TGT: T1, ZFP SBS#1264 (synthetic)
- T1 chain: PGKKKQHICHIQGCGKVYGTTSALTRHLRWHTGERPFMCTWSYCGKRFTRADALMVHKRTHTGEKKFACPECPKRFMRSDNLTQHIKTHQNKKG
- PROTOCOL TEXT: EMSA
- RUN CONDITIONS: tags: MBP fusion
QUANTITY MEASURED: Kd (nM)

binder="AAGTTGGTT (dsDNA) DNA 1: AAGTTGGTT DNA 2: AACCAACTT" reported_result=0.21
